# tested-system: Phospholipase A2, membrane associated (Rattus norvegicus, UniProt P14423)
# Sequence (P14423 whole entry): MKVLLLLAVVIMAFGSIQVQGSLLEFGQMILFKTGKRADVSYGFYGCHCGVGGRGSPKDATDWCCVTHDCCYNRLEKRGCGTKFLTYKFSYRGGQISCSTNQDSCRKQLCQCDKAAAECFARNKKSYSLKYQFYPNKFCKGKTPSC
# assay-procedure: In vitro inhibition of rat secretory Phospholipase A2 (group II).
Measured IC50 of individual entries

smiles-string	unit-label	IC50
COc1c(C)c(OC(=O)c2c(C)c(C)c(OC(=O)c3cccc(C(=O)Oc4c(C)c(C)c(C(=O)Oc5c(C)c(C)c(C(=O)O)c(OC)c5C)c(OC)c4C)c3)c(C)c2OC)c(C)c(C)c1C(=O)O	nM	120
COc1c(C)c(OC(=O)c2c(C)c(C)c(OC(=O)/C=C/C(=O)Oc3c(C)c(C)c(C(=O)Oc4c(C)c(C)c(C(=O)O)c(OC)c4C)c(OC)c3C)c(C)c2OC)c(C)c(C)c1C(=O)O	nM	330
COc1cc(OC)c(C(=O)Oc2c(C)c(C)c(C(=O)Oc3c(C)c(C)c(C(=O)O)c(OC)c3C)c(OC)c2C)cc1Oc1cc(C)c(OC)c(C(=O)Oc2c(C)c(C)c(C(=O)Oc3c(C)c(C)c(C(=O)O)c(OC)c3C)c(OC)c2C)c1	nM	35

---

Measured pIC50 of individual entries
# tested-system: Phospholipase A2 (Homo sapiens, UniProt P04054)
# Sequence (P04054 whole entry): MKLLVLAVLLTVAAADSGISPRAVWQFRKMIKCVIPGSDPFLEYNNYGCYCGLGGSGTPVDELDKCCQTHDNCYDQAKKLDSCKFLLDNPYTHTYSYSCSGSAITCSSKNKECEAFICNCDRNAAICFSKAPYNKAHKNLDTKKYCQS
# assay-procedure: In vitro inhibition of human recombinant secretory Phospholipase A2 (group I).
pIC50: −log10 of the molar value.
measured-quantity: pIC50

smiles-string	measured
Cc1c(O)c(Cc2c(C)c(C(=O)Oc3c(C)c(C)c(C(=O)Oc4c(C)c(C)c(C(=O)O)c(O)c4C)c(O)c3C)c(O)c(C)c2O)c(C)c(C(=O)Oc2c(C)c(C)c(C(=O)Oc3c(C)c(C)c(C(=O)O)c(O)c3C)c(O)c2C)c1O	< 4.00
COc1c(C)c(OC(=O)c2c(C)c(C)c(OC(=O)/C=C/C(=O)Oc3c(C)c(C)c(C(=O)Oc4c(C)c(C)c(C(=O)O)c(OC)c4C)c(OC)c3C)c(C)c2OC)c(C)c(C)c1C(=O)O	< 4.00
COc1c(C)c(OC(=O)c2c(C)c(C)c(OC(=O)c3cccc(C(=O)Oc4c(C)c(C)c(C(=O)Oc5c(C)c(C)c(C(=O)O)c(OC)c5C)c(OC)c4C)c3)c(C)c2OC)c(C)c(C)c1C(=O)O	< 4.00
